assay: Cytotoxicity against human A549 cells measured after 48 hrs by MTT assay; assay type: toxicity, cell-based
measured_property: GI50 at 48 h

>  <item_smiles>
O=C1NC(=S)S/C1=C\c1cc2cc(F)ccc2nc1Cl

>  <measured_property>
GI50 at 48 h

>  <recorded_result>
> 100 µg/mL

$$$$
>  <item_smiles>
CCOc1ccc2nc(Cl)c(/C=C3\SC(=S)NC3=O)cc2c1

>  <measured_property>
GI50 at 48 h

>  <recorded_result>
> 100 µg/mL

$$$$
>  <item_smiles>
COc1ccc2nc(Cl)c(/C=C3\SC(=S)NC3=O)cc2c1

>  <measured_property>
GI50 at 48 h

>  <recorded_result>
> 100 µg/mL

$$$$

The record that follows has no GI50 at 48 h shown yet.
QUERY: Given Cc1cccc2cc(/C=C3\SC(=S)NC3=O)c(Cl)nc12 , state its recorded GI50 at 48 h.
RESULT: > 100 µg/mL

====

system: Escherichia coli; test: Growth inhibition of Escherichia coli NCIM 2688 at 10 ug/ml measured after 8 hrs relative to control; type: functional; conditions: NCIM 2688, 8 h, read-out: GI
measured_property: inhibition of growth at 10 µg/mL (%)
Give bare numbers, in %.

>  <item_smiles>
O=C(O)CN1C(=O)/C(=C/c2cc3cc(Cl)ccc3nc2Cl)SC1=S

>  <result_units>
%

>  <inhibition of growth at 10 µg/mL>
-12.4

$$$$
>  <item_smiles>
Cc1cccc2cc(/C=C3\SC(=S)N(CC(=O)O)C3=O)c(Cl)nc12

>  <result_units>
%

>  <inhibition of growth at 10 µg/mL>
3.38

$$$$
>  <item_smiles>
Cc1ccc2nc(Cl)c(/C=C3\SC(=S)N(CCC(=O)O)C3=O)cc2c1

>  <result_units>
%

>  <inhibition of growth at 10 µg/mL>
-47.6

$$$$
>  <item_smiles>
O=C(O)CN1C(=O)/C(=C/c2cc3ccccc3nc2Cl)SC1=S

>  <result_units>
%

>  <inhibition of growth at 10 µg/mL>
-8.37

$$$$
>  <item_smiles>
COc1ccc2nc(Cl)c(/C=C3\SC(=S)N(CCC(=O)O)C3=O)cc2c1

>  <result_units>
%

>  <inhibition of growth at 10 µg/mL>
14.4

$$$$

Kindly give each listed record's inhibition of growth at 10 µg/mL.
1. O=C(O)CCN1C(=O)/C(=C/c2cc3ccccc3nc2Cl)SC1=S
2. COc1ccc2nc(Cl)c(/C=C3\SC(=S)N(CC(=O)O)C3=O)cc2c1
3. COc1ccc2nc(Cl)c(/C=C3\SC(=S)NC3=O)cc2c1
4. O=C(O)CN1C(=O)/C(=C/c2cc3cc(F)ccc3nc2Cl)SC1=S
5. O=C1NC(=S)S/C1=C\c1cc2cc(F)ccc2nc1Cl

RESULT:
[-52.5, -19.5, -36.1, -8.65, 27.5]

Please go through the list and note inhibition of growth at 10 µg/mL for each compound.
1. O=C(O)CCN1C(=O)/C(=C/c2cc3cc(Cl)ccc3nc2Cl)SC1=S
2. CCOc1ccc2nc(Cl)c(/C=C3\SC(=S)N(CC(=O)O)C3=O)cc2c1
3. Cc1ccc2nc(Cl)c(/C=C3\SC(=S)NC3=O)cc2c1
4. CCOc1ccc2nc(Cl)c(/C=C3\SC(=S)N(CCC(=O)O)C3=O)cc2c1

RESULT:
1: 27.1; 2: 18.5; 3: -6.34; 4: 7.42

Your task in this section: give inhibition of growth at 10 µg/mL for each listed record.
1. COc1ccc2cc(/C=C3\SC(=S)NC3=O)c(Cl)nc2c1
2. Cc1ccc2cc(/C=C3\SC(=S)NC3=O)c(Cl)nc2c1
3. Cc1cccc2cc(/C=C3\SC(=S)NC3=O)c(Cl)nc12

RESULT:
[39.4, 11.3, 27.5]

Parameter requested: inhibition of growth at 10 µg/mL. Apply to each item below.
1. O=C(O)CCN1C(=O)/C(=C/c2cc3cc(F)ccc3nc2Cl)SC1=S
2. O=C1NC(=S)S/C1=C\c1cc2ccccc2nc1Cl
3. Cc1cccc2cc(/C=C3\SC(=S)N(CCC(=O)O)C3=O)c(Cl)nc12

RESULT:
1: 21.4; 2: -14.7; 3: 4.27

Hey, quick one: what's inhibition of growth at 10 µg/mL for each of these?
1. Cc1ccc2cc(/C=C3\SC(=S)N(CCC(=O)O)C3=O)c(Cl)nc2c1
2. Cc1ccc2nc(Cl)c(/C=C3\SC(=S)N(CC(=O)O)C3=O)cc2c1

RESULT:
1: 28.8; 2: 0.409

====

tested on: Mycobacterium tuberculosis; experiment: Growth inhibition of Mycobacterium bovis BCG ATCC 35743 at dormant stage at 30 ug/ml measured after 12 days by nitrate reductase dye based two fold dilution method relative to control; type: functional; conditions: BCG str. ATCC 35743, 288 h, read-out: GI
Kindly supply the reported inhibition of growth at 30 µg/mL values for the records listed here.
Numbers only, in %.

Solved cases below.
>  <item_smiles>
Cc1ccc2cc(/C=C3\SC(=S)NC3=O)c(Cl)nc2c1

>  <recorded_result>
11.4

$$$$
>  <item_smiles>
COc1ccc2cc(/C=C3\SC(=S)N(CCC(=O)O)C3=O)c(Cl)nc2c1

>  <recorded_result>
11.3

$$$$
>  <item_smiles>
CCOc1ccc2nc(Cl)c(/C=C3\SC(=S)N(CCC(=O)O)C3=O)cc2c1

>  <recorded_result>
32.5

$$$$
>  <item_smiles>
Cc1ccc2cc(/C=C3\SC(=S)N(CCC(=O)O)C3=O)c(Cl)nc2c1

>  <recorded_result>
-9.18

$$$$

Switching to the query record.
QUERY: # get_value(readout= inhibition of growth at 30 µg/mL, system= Mycobacterium tuberculosis) for Cc1ccc2nc(Cl)c(/C=C3\SC(=S)N(CCC(=O)O)C3=O)cc2c1
RESULT: -14.8

====

test system: Mycobacterium tuberculosis; assay: Growth inhibition of Mycobacterium bovis BCG ATCC 35743 at dormant stage at 10 ug/ml measured after 12 days by nitrate reductase dye based two fold dilution method relative to control; type: functional; conditions: BCG str. ATCC 35743, 288 h, read-out: GI
// bucketize inhibition of growth at 10 µg/mL: band A = under 10%, band B = from 10% up to 30%, band C = 30% and over

As a guide, the following entries are already answered.
>  <item_smiles>
Cc1cccc2cc(/C=C3\SC(=S)NC3=O)c(Cl)nc12

>  <assigned_class>
band A

$$$$
>  <item_smiles>
O=C(O)CCN1C(=O)/C(=C/c2cc3cc(F)ccc3nc2Cl)SC1=S

>  <assigned_class>
band B

$$$$

QUERY: Any idea which band O=C1NC(=S)S/C1=C\c1cc2cc(F)ccc2nc1Cl is in?
RESULT: band B

QUERY: // bin(item) where item = O=C(O)CCN1C(=O)/C(=C/c2cc3ccccc3nc2Cl)SC1=S
RESULT: band A

QUERY: Which inhibition of growth at 10 µg/mL category applies to Cc1ccc2cc(/C=C3\SC(=S)NC3=O)c(Cl)nc2c1 here?
RESULT: band B

====

assay: Cytotoxicity against human HeLa cells measured after 48 hrs by MTT assay; format: toxicity, cell-based
Hi there, I'd appreciate the recorded GI50 at 48 h for every entry that follows.

// known answers, use as guide
>  <molecule>
O=C1NC(=S)S/C1=C\c1cc2cc(Cl)ccc2nc1Cl

>  <GI50 at 48 h>
> 100 µg/mL

$$$$
>  <molecule>
Cc1cccc2cc(/C=C3\SC(=S)N(CC(=O)O)C3=O)c(Cl)nc12

>  <GI50 at 48 h>
> 100 µg/mL

$$$$

Please state GI50 at 48 h for every molecule in the list that follows.
1. CCOc1ccc2nc(Cl)c(/C=C3\SC(=S)NC3=O)cc2c1
2. CC(=O)O[C@H]1C(=O)[C@@]2(C)[C@H]([C@H](OC(=O)c3ccccc3)[C@]3(O)C[C@H](OC(=O)[C@H](O)[C@@H](NC(=O)c4ccccc4)c4ccccc4)C(C)=C1C3(C)C)[C@]1(OC(C)=O)CO[C@@H]1C[C@@H]2O [PACLITAXEL]

RESULT:
> 100 µg/mL
0.08 µg/mL

====

test system: Escherichia coli; assay: Growth inhibition of Escherichia coli NCIM 2688 at 10 ug/ml measured after 8 hrs relative to control; type: functional; conditions: NCIM 2688, 8 h, read-out: GI
Use 10% as the dividing line for inhibition of growth at 10 µg/mL, with the line itself on the true side and lower values as false.

>  <item_smiles>
COc1ccc2cc(/C=C3\SC(=S)N(CC(=O)O)C3=O)c(Cl)nc2c1

>  <target_desc>
Escherichia coli

>  <assigned_class>
false

$$$$
>  <item_smiles>
COc1ccc2cc(/C=C3\SC(=S)N(CCC(=O)O)C3=O)c(Cl)nc2c1

>  <target_desc>
Escherichia coli

>  <assigned_class>
true

$$$$
>  <item_smiles>
Cc1ccc2cc(/C=C3\SC(=S)N(CC(=O)O)C3=O)c(Cl)nc2c1

>  <target_desc>
Escherichia coli

>  <assigned_class>
false

$$$$

QUERY: // inclusive: inhibition of growth at 10 µg/mL at least 10%? input: CCOc1ccc2nc(Cl)c(/C=C3\SC(=S)NC3=O)cc2c1
RESULT: true

QUERY: Does the reported inhibition of growth at 10 µg/mL for O=C1NC(=S)S/C1=C\c1cc2cc(Cl)ccc2nc1Cl fall at or above the 10% mark?
RESULT: true
